EXPERIMENT SUMMARY: Zeta-potential of siRNA-lipid complexes (Malvern Zetasizer)
Format: physicochemical
CONDITION NOTES: pH = 7.4, N/P = 5
ASSAY METRIC: Zeta-potential of siRNA-lipid complexes (mV)
// note: answer is a bare numeric in mV

Example entries and their recorded answers appear below.
COMPOUND	UNIT ABBREVIATION	Zeta-potential of siRNA-lipid complexes
CCCCC/C=C\C/C=C\CCCCCCCC(=O)NC(CS)C(=O)NCCNC(=O)CCN(CCCNCCCCNCCCN)CCC(=O)NCCNC(=O)C(CS)NC(=O)CCCCCCC/C=C\C/C=C\CCCCC (stereo not shown)	mV	26.89
CCCCCCCC/C=C\CCCCCCCC(=O)NC(CS)C(=O)NC(Cc1cnc[nH]1)C(=O)NCCNC(=O)CCN(CCCNCCCCNCCCN)CCC(=O)NCCNC(=O)C(Cc1cnc[nH]1)NC(=O)C(CS)NC(=O)CCCCCCC/C=C\CCCCCCCC (stereo not shown)	mV	−18.5
CCCCCCCC/C=C\CCCCCCCC(=O)NC(CS)C(=O)NC(Cc1cnc[nH]1)C(=O)NCCNC(=O)CCN(CCN)CCC(=O)NCCNC(=O)C(Cc1cnc[nH]1)NC(=O)C(CS)NC(=O)CCCCCCC/C=C\CCCCCCCC (stereo not shown)	mV	−14.09

Field: next compound
Zeta-potential of siRNA-lipid complexes reported for this compound CCCCC/C=C\C/C=C\CCCCCCCC(=O)NC(CS)C(=O)NC(Cc1cnc[nH]1)C(=O)NCCNC(=O)CCN(CCCNCCCCNCCCN)CCC(=O)NCCNC(=O)C(Cc1cnc[nH]1)NC(=O)C(CS)NC(=O)CCCCCCC/C=C\C/C=C\CCCCC (stereo not shown) [SHCLn] : 24.02
